All values here come from patent US6720424B1.

System name: KDR (Homo sapiens, UniProt P35968)
Construct: expressed in transfected cells; host or cells: NIH3T3
Sequence (P35968 20-1356): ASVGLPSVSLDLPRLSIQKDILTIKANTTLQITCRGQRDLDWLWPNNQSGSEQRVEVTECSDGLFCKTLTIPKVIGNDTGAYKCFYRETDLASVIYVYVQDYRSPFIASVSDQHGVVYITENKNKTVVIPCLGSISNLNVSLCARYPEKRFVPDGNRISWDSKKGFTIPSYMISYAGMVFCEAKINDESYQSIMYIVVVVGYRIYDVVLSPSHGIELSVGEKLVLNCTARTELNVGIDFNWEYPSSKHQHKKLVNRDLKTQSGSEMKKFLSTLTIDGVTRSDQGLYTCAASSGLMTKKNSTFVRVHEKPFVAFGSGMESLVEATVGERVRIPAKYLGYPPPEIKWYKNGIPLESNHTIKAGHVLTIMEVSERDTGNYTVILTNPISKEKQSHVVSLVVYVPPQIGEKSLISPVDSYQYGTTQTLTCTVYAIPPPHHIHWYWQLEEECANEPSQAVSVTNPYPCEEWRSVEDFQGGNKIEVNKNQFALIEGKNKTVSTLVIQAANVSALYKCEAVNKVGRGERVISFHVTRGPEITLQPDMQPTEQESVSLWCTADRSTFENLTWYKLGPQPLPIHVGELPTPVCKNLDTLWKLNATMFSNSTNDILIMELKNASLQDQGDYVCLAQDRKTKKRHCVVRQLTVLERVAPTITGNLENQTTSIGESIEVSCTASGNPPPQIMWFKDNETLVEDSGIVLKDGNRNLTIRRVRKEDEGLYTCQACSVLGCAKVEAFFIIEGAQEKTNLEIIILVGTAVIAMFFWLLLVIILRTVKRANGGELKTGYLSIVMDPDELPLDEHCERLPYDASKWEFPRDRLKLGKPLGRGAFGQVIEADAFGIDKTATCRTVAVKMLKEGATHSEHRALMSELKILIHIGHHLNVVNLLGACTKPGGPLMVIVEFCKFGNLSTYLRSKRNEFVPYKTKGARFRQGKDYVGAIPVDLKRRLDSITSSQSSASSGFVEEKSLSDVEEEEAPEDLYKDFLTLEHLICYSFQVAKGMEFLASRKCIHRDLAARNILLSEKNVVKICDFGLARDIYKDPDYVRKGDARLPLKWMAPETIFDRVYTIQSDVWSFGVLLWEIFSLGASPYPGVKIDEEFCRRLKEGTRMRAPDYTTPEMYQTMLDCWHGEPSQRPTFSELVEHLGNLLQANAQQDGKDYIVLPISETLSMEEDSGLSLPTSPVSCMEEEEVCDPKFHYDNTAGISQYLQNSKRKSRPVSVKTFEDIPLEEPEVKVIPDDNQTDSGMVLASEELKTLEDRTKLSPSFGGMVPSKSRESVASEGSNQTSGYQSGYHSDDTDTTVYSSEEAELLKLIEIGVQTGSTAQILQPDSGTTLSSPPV
Assay comment: (125I)-VEGF binding inhibition on NIH3T3 cells in which KDR was forced to be expressed
Reported conditions: KDR-expressing NIH3T3 cells, (125I)-VEGF 25 pM, 90 minutes; Table 20; read-out: IC50 (concentration of 50% binding inhibition)
pIC50: −log10 of the molar value.
Metric: pIC50

INSERT INTO measurements (query_smiles, metric, observed) VALUES
  ('CCCCCCCCCCCCCCCCCCOc1ccc(CCC(=O)Nc2ccc(Nc3cccc(C(=O)O)c3)c(C(=O)O)c2)cc1', 'pIC50', 6.40),
  ('CCCCCCCCCCCCCCCCCCOc1ccc(CCC(=O)Nc2ccc(Oc3cccc(C(=O)O)c3)c(C(=O)O)c2)cc1', 'pIC50', 6.38),
  ('CCCCCCCCCCCCCCCCCCOc1ccc(CCC(=O)Nc2ccc(Oc3cccc(CC(=O)O)c3)c(C(=O)O)c2)cc1', 'pIC50', 6.03),
  ('CCCCCCCCCCCCCCCCCCOc1ccc(CCC(=O)Nc2cc(C(=O)O)ccc2Oc2cccc(C(=O)O)c2)cc1', 'pIC50', 5.90);

----------
melting point values by entry
Metric: melting point

INSERT INTO results (compound, metric, observed) VALUES
  ('CCCCCCCCCCCCCCCCCCOc1ccc(CCC(=O)Nc2ccc(Oc3ccccc3C(=O)O)c(C(=O)O)c2)cc1 [Compound 29]', 'melting point', '184 to 186 °C'),
  ('CCCCCCCCCCCCCCCCCCOc1ccc(CCC(=O)Nc2cc(C(=O)O)ccc2Oc2ccc3cc(C(=O)O)ccc3c2)cc1 [Compound 38]', 'melting point', '214 to 219 °C'),
  ('CCCCCCCCCCCCCCCCCCOc1ccc(CCC(=O)Nc2cc(C(=O)O)ccc2SCCC)cc1 [Compound 147]', 'melting point', '150 to 152 °C'),
  ('CCCCCCCCCCCCCCCCCCOc1ccc(CCC(=O)Nc2cc(C(=O)O)ccc2SC)cc1 [Compound 145]', 'melting point', '216 to 219 °C');
